# SYSTEM_NAME: hCA II (Homo sapiens)
# Construct: gene CA2; recombinant, obtained in house
# EXPERIMENTAL_PROTOCOL: stopped-flow CO2 hydration assay
# Type: biochemical
# Source text: stopped-flow CO2 hydration assay on hCA II
pKi: −log10 of the molar value.

MOLECULE | pKi
Cc1cc(C)cc(NC(=O)[Se]c2ccccc2)c1 [3a, 3 a] | 5.28
O=C(NCc1ccco1)[Se][C@@H]1CCCC[C@H]1O (relative stereo) [3t, 3 t] | 4.08
CCCCCCCCCCCC[Se]C(N)=O [3n, 3 n] | 4.07
Cc1ccc(NC(=O)[Se]c2ccccc2)cc1 [3c, 3 c] | 5.08
Cc1ccccc1[Se]C(=O)Nc1ccc(Br)cc1 [3l, 3 l] | 5.10
NC(=O)[Se]c1ccccc1 [3j, 1‐(phenylselanyl)formamide] | 5.17
COc1cccc(NC(=O)[Se]c2ccccc2)c1 [3d, 3 d] | 5.10
O=C(Nc1ccc(Br)cc1)[Se]Cc1ccccc1 [3p, 3 p] | 4.40
CCCCCCCCCCCC[Se]C(=O)Nc1ccc(Br)cc1 [3m, 3 m] | 4.06
O=C(NCc1ccco1)[Se]c1ccccc1 [3i, 3 i] | 4.39
O=C(Nc1ccc(Br)cc1)[Se]c1ccccc1 [3h, 3 h] | 5.07

###

In this section, each of the molecules is paired with its reported pKi.
# SYSTEM_NAME: hCA II (Homo sapiens, UniProt P00918)
# Construct: gene CA2; recombinant, obtained in house
# EXPERIMENTAL_PROTOCOL: stopped-flow CO2 hydration assay
# Type: biochemical
pKi: −log10 of the molar value.

MOLECULE | SYSTEM_NAME | pKi
O=C(Nc1ccccc1F)[Se]c1ccccc1 | hCA II (Homo sapiens, UniProt P00918) | 5.04
O=C(Nc1ccccc1)[Se]c1ccccc1 | hCA II (Homo sapiens, UniProt P00918) | 5.39
O=C(Nc1ccc(Cl)cc1)[Se]c1ccccc1 | hCA II (Homo sapiens, UniProt P00918) | 4.88
Cc1cc(C)cc(NC(=O)[Se][C@@H]2CCCC[C@H]2O)c1 (relative stereo) | hCA II (Homo sapiens, UniProt P00918) | 4.07
CC(C)OCC(O)C[Se]C(=O)NC12CC3CC(CC(C3)C1)C2 (racemic) | hCA II (Homo sapiens, UniProt P00918) | 4.10
O=C(Nc1ccc(F)cc1)[Se]c1ccccc1 | hCA II (Homo sapiens, UniProt P00918) | 5.03
C=CCOCC(O)C[Se]C(=O)Nc1cc(C)cc(C)c1 (racemic) | hCA II (Homo sapiens, UniProt P00918) | 4.10
Cc1ccc([Se]C(=O)Nc2ccc(Br)cc2)cc1 | hCA II (Homo sapiens, UniProt P00918) | 4.94

###

# SYSTEM_NAME: hCA I (Homo sapiens, UniProt P00915)
# Construct: gene CA1; recombinant, obtained in house
# Sequence (P00915 2-261): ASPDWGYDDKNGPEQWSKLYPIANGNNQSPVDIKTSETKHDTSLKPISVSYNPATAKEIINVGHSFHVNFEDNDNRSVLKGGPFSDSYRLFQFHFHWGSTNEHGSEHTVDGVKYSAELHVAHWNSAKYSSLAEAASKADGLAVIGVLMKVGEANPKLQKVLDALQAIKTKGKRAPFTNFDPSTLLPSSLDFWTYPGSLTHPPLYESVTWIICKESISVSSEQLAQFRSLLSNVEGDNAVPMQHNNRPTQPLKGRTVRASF
# EXPERIMENTAL_PROTOCOL: stopped-flow CO2 hydration assay
# Assay type: biochemical

COMPOUND | SYSTEM_NAME | REPORTED_RELATION | Ki [µM]
Cc1cc(C)cc(NC(=O)[Se][C@@H]2CCCC[C@H]2O)c1 (relative stereo) | hCA I (Homo sapiens, UniProt P00915) | = | 74.3
O=C(Nc1ccccc1)[Se]c1ccccc1 | hCA I (Homo sapiens, UniProt P00915) | = | 40.4
Cc1ccc([Se]C(=O)Nc2ccc(Br)cc2)cc1 | hCA I (Homo sapiens, UniProt P00915) | = | 38.6
O=C(Nc1ccc(Br)cc1)[Se]c1ccccc1 | hCA I (Homo sapiens, UniProt P00915) | = | 13.8
CCCCCCCCCCCC[Se]C(N)=O | hCA I (Homo sapiens, UniProt P00915) | = | 90.3
Cc1cc(C)cc(NC(=O)[Se]c2ccccc2)c1 | hCA I (Homo sapiens, UniProt P00915) | = | 49.5
NC(=O)[Se]c1ccccc1 [3j, 1‐(phenylselanyl)formamide] | hCA I (Homo sapiens, UniProt P00915) | = | 9.8
CCCCCCCCCCCC[Se]C(=O)Nc1ccc(Br)cc1 | hCA I (Homo sapiens, UniProt P00915) | = | 92.1
Cc1ccccc1[Se]C(=O)Nc1ccc(Br)cc1 | hCA I (Homo sapiens, UniProt P00915) | = | 13.4
O=C(Nc1ccc(Cl)cc1)[Se]c1ccccc1 | hCA I (Homo sapiens, UniProt P00915) | = | 42.5
O=C(NCc1ccco1)[Se]c1ccccc1 | hCA I (Homo sapiens, UniProt P00915) | = | 8.8
COc1cccc(NC(=O)[Se]c2ccccc2)c1 | hCA I (Homo sapiens, UniProt P00915) | = | 49.3
C=CCOCC(O)C[Se]C(=O)Nc1cc(C)cc(C)c1 (racemic) | hCA I (Homo sapiens, UniProt P00915) | = | 67.5
Cc1ccc(NC(=O)[Se]c2ccccc2)cc1 | hCA I (Homo sapiens, UniProt P00915) | = | 25.9
O=C(Nc1ccc(Br)cc1)[Se]Cc1ccccc1 | hCA I (Homo sapiens, UniProt P00915) | = | 85
Cc1ccc(S(=O)(=O)N[C@@H](C)C[Se]C(=O)Nc2cc(C)cc(C)c2)cc1 | hCA I (Homo sapiens, UniProt P00915) | > | 100
O=C(Nc1ccc(F)cc1)[Se]c1ccccc1 | hCA I (Homo sapiens, UniProt P00915) | = | 15.3
O=C(NCc1ccco1)[Se][C@@H]1CCCC[C@H]1O (relative stereo) | hCA I (Homo sapiens, UniProt P00915) | = | 67.4
CC(C)OCC(O)C[Se]C(=O)NC12CC3CC(CC(C3)C1)C2 (racemic) | hCA I (Homo sapiens, UniProt P00915) | = | 92.7
O=C(Nc1ccccc1F)[Se]c1ccccc1 | hCA I (Homo sapiens, UniProt P00915) | = | 30.8
